B1: NELF-E aptamer (parent)
chain: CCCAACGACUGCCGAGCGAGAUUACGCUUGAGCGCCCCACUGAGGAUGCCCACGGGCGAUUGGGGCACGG

# Variants of: B1
# experimental details: HiTS-RAP
# details: with NELF-E (Drosophila)
pKd: −log10 of the molar value.
pKd below 8 gives rule not met; pKd at or above it gives rule met.

CCCAAAGACGGCCGAGCGAGAUUACGCUUGAGCGCCCCACUGAGGAUGCCCACGGGCGAUUGGGGCACGG
rule met
CCCAACGACGGCCGAGCGAGAUUACGCUUGAACGCCCCACUGAGGAUGCCCACGGGCGAUUGGGGCACGG
rule met
CCCUACGACUGCCGAGCGAGAUUACGCUUGAGCGCCCCACAGAGGAUGCCCACGGGCGAUUGGGGCACGG
rule not met
CCCAACGACGGCCGAGCGUGAUUACGCUUGAGCGCCCCACUGAGGAUGCCCACGGGCGAUUGGGGCACGG
rule met
CACAACGACUGCCGAGCGAGAUUACGCUUGAGCGCCCCACUGAGGAUGCCCACGGGCGAUUGGGGCACGG
rule met

Task: Does the variant CCCAACGACUGCCGAGCGAGAUUACGCUGGAGCGCCCCACUGAGGAUGCCCACGGGUGAUUGGGGCACGG have recorded pKd that is 8 or more?
Result: rule met

Task: Does the variant CCCAACGAGUGACGAGCGAGAUUACGCUUGAGCGCCCCACUGAGGAUGCCCACGGGCGAUUGGGGCACGG have recorded pKd that is 8 or more?
Result: rule met

Task: Does the variant CCCAACGACUGCCGAGCGAGAUUACGCUUGGGCGCCCCACUGAGGAUGCCCACAGGCGAUUGGGGCACGG have recorded pKd that is 8 or more?
Result: rule not met

Task: Does the variant CCCAAGGGCUGCCGAGCGAGAUUACGCUUGAGCGCCCCACUGAGGAUGCCCACGGGCGAUUGGGGCACGG have recorded pKd that is 8 or more?
Result: rule met

Task: Does the variant CCUAACGACUGCCGAGCGAGAUUACGCUUGAGCGCCCCACUGAGGAUGCCCACGGGCGAUUGGGGCACGG have recorded pKd that is 8 or more?
Result: rule met
